Target: p110δ/p85α (Homo sapiens (Human))
Sequence (O00329 whole entry, one chain of several): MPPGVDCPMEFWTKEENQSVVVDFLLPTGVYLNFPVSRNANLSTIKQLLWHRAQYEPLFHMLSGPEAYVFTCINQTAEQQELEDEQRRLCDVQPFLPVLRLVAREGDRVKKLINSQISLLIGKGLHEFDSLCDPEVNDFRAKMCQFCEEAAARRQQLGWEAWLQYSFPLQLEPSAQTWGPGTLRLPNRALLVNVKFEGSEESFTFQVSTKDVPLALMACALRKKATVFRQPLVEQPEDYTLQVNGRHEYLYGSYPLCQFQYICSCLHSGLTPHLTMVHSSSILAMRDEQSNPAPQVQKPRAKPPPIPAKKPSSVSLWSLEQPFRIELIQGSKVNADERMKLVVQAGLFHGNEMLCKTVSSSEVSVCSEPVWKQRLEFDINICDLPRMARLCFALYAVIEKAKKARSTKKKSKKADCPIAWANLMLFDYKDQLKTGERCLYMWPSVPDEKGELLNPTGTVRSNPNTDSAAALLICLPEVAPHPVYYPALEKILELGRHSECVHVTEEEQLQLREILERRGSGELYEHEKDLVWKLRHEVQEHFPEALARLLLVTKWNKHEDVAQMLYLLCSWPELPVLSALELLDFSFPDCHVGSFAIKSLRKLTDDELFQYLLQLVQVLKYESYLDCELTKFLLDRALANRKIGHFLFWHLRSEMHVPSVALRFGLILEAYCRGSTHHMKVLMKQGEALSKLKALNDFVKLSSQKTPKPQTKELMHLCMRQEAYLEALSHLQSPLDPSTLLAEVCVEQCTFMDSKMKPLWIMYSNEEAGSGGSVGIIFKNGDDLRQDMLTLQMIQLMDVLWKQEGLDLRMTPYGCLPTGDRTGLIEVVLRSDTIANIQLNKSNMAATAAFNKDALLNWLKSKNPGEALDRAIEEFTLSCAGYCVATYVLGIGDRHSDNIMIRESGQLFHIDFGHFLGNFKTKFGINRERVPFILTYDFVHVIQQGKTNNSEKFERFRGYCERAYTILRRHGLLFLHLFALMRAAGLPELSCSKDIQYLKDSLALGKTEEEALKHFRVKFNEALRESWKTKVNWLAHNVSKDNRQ
Assay: PI 3-Kinase (human) HTRF assay, p110δ/p85α
Assay type: biochemical
Details: in vitro; read-out: PI3K δ IC50
pIC50: −log10 of the molar value.
Collected pIC50 values appear next to each entry.

Below, 3 compounds whose answers are already recorded.
>>> df
                                   compound  observed_value
0  Nc1nc2cc(-c3ccc4ncc(NCCCN5CCCC5)nc4c3)ccc2o1 [compound 221]          > 7.00
1  Nc1nc2cc(-c3ccc4ncc(N5CC[C@H](N6CCOCC6)C5)nc4c3)ccc2o1 [compound 375]          > 6.00
2  Nc1nc2cc(-c3ccc4ncc(N5CC(N6CCOCC6)C5)nc4c3)c(F)cc2o1 [compound 373]          > 5.00

Kindly indicate its recorded pIC50. Item: Nc1nc2cc(-c3ccc4ncc(C(=O)NCCCN5CCOCC5)n4c3)ccc2o1 [compound 288]
> 6.00

Name the recorded pIC50 of the item CCN(CC)CCCNc1cnc2ccc(-c3ccc4oc(N)nc4c3)cc2n1 [compound 220] in your answer.
> 7.00

* * *

Biological target: p110α/p85α (Homo sapiens (Human))
Sequence (P42336 whole entry): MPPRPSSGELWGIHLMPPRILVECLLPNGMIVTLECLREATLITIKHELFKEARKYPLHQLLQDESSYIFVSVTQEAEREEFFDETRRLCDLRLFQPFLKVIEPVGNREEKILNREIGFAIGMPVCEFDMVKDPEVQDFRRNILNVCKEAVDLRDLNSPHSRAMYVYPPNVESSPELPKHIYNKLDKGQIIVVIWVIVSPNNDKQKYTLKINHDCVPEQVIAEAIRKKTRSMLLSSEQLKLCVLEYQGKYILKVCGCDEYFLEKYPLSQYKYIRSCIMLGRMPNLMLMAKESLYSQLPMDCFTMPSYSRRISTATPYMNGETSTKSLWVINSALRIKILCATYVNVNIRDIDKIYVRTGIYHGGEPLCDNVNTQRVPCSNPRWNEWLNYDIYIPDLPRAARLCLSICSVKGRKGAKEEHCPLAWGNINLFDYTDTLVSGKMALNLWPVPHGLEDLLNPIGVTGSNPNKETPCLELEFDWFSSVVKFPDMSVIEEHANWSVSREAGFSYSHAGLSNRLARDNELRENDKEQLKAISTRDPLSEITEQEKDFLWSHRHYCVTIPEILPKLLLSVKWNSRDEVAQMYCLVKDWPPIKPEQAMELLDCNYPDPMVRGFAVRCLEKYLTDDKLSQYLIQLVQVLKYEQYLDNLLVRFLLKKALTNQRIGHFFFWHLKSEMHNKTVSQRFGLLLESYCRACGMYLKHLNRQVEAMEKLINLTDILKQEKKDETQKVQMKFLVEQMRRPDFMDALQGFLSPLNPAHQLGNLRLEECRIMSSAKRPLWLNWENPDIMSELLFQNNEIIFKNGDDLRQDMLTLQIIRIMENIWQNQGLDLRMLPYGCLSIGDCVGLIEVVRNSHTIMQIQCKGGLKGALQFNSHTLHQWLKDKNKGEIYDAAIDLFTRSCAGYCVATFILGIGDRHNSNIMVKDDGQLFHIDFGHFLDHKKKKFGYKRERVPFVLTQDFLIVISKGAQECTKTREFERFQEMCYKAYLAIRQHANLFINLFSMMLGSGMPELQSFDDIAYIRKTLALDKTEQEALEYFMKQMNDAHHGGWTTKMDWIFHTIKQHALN
Sequence (P27986 whole entry partner): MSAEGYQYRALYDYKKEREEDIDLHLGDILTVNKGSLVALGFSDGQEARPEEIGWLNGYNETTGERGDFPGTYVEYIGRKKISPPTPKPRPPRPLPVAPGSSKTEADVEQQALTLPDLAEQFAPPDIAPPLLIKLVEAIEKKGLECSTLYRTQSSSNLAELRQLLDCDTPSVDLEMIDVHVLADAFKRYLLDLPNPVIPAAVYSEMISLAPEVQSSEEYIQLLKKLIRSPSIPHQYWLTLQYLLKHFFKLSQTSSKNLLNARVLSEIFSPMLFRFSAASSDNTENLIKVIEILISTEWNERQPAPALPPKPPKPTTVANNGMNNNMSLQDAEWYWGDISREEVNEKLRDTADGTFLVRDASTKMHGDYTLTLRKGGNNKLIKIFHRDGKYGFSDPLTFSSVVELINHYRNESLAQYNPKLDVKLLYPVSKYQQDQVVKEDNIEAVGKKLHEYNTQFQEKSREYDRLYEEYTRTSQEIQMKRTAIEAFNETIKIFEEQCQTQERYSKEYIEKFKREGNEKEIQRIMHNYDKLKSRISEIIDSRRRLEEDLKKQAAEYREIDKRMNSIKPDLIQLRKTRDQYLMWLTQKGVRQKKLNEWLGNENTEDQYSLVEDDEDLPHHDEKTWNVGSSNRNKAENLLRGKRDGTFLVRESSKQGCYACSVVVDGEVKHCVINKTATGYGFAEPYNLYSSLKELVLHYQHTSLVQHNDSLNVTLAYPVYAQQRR
Test: PI 3-Kinase (human) HTRF assay, p110α/p85α
Type: biochemical
Details: in vitro; read-out: PI3K α IC50
Property: IC50

Illustrative cases are given below, each with its answer.
In [3]: df
Out[3]:
                            compound_string  observed_value
0  CC(C)(N)C(=O)N1CCN(c2cnc3ccc(-c4ccc5oc(N)nc5c4)cc3n2)CC1        < 100 nM
1  Cc1cc(-c2ccc3ncc(N4CC(N5CCOCC5)C4)nc3c2)cc2nc(N)oc12      < 10000 nM

Proceed to the following item.
Quote p110α/p85α (Homo sapiens (Human)) IC50 for entry CNC(=O)C1CN(c2cnc3ccc(-c4ccc5oc(N)nc5c4)cc3n2)C1 .
< 100 nM
